Every entry's value here was drawn from the supplement of paper PMC12764529.

Catalogue of sequences with associated folding stability dG unfold
TEST_NAME: folding stability dG unfold from chymotrypsin proteolysis; higher = more stable
MEASURED_ENDPOINT: folding stability dG unfold

SAGGSAGGSAGGSKKYKAKIVSVEYDEETKEVTIKVKLENGEEKTITMSLEELKEIELPSAGGSAGGSAGGS [r4_51_TrROS_Hall]	3.15 kcal/mol
SAGGSAGGWFWVIKAEYPKNGRERSIQIPNEATDEDDVKEEVKELAEDLGAPIKKVEIEWIDPESAGGSAGG [r6_718_TrROS]	-0.474 kcal/mol
SSSSTLVSSYTLTLKDEKGNEITLKVDVYKFPSGSYRVEITRPDGTVTEYEFPASEPPTEEKIKELALKKSA [r9_616_JUSTAS]	6.01 kcal/mol
SAGGSALPEDATVKVEVTVVTLVYDPETGGFYLKVAKVEKEIRFDPKNGKLEVKVKKVEVKVFKLGSAGGSA [r15_517_TrMRF]	4.41 kcal/mol
